target: UniProt:P24666; assay: pNPP phosphatase inhibition assay, HCPTP-B; format: biochemical; conditions: IC50 HCPTP-B, pH 5 (Table I), pNPP substrate, 25 °C
Sequence (P24666 1-158 isoform P24666-2): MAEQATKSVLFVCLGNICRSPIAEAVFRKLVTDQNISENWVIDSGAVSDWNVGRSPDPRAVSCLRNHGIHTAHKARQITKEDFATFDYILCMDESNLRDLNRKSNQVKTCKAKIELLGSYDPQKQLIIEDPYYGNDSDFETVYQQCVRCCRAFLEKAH
Experimental Readout: pIC50
// scale note: pIC50 = -log10(conc_M); give the bare number

A selection of reference data follows.
> print(dat)
                                   compound  value.observed
1  O=S(=O)(O)c1ccc2c(/N=N/c3c(O)ccc4ccccc34)cccc2c1 [Compound 45576]            5.41
2  O=C1C2=C(CC=CC2)C(=O)c2c(Nc3ccc(S(=O)(=O)O)cc3)ccc(Nc3ccccc3)c21 [Compound 128437]            5.35

Please look at the following compound next.
Inquiry: For NC(Cc1ccccc1)P(=O)(O)O (stereo not drawn) [Compound 30080] , what is its reported pIC50?
Reply text: 3.86
